Recorded melting point, one value per entry.

Below: 6 compounds and their reported melting point.
| structure-smiles-string | readout | reported |
| --- | --- | --- |
| CC(=O)c1nc(-c2ccccn2)[nH]c1C | melting point | 145 to 147 °C |
| CCCOC(=O)c1c(-c2ccncc2)[nH]c(-c2ccncc2)c1C | melting point | 215 to 218 °C |
| O=C1NC[C@@H](c2ccccc2)O1 | melting point | 86 to 87 °C |
| COc1ccc(-c2ccc(C(=O)Nc3ccc4cc(CN5CCCC5)cnc4c3C)cc2F)cc1 | melting point | 174 to 176 °C |
| COC(=O)c1cccc([N+](=O)[O-])c1NCc1ccc(-c2ccccc2C#N)cc1 | melting point | 140 to 141 °C |
| CCOc1cc(C(C)C)ccc1C1CCN(CCCCNC(=O)c2ccc(NC(=O)c3ccc(Cl)cc3)cc2)CC1 | melting point | 242 °C |

What measured melting point goes with `Cc1c(C(=O)Cl)cccc1S(=O)(=O)CCCl` ?
67 to 70 °C

What measured melting point goes with `CCOC(=O)c1cc(-c2ccc(OC)cc2)nn(CC2CCCC2)c1=O` ?
63.6 to 64.4 °C

What measured melting point goes with `CCOC(=O)C=Cc1ccc(-c2ccccc2)cc1` ?
88.6 °C

What measured melting point goes with `CCCc1nc(OC)c(N(C)C(=O)N2CCN(c3cc(OC)cc(OC)c3)CC2)cc1C` ?
106 to 107 °C
